Experiment: Cytotoxicity against HEK293T cells assessed as cell viability by MTT assay
Format: toxicity, cell-based, HEK-293T
Conditions: human
Record form. Attribute: pIC50. Fill in for each entry.
Numbers only, as −log10 of the molar value.

Give pIC50 for all compounds that follow.
1. CCCCc1ccc(NC(=O)c2ccc([N+](=O)[O-])o2)cc1
2. O=C(/C=C/C=C/c1ccccc1)OCc1ccc(NC(=O)c2ccc([N+](=O)[O-])o2)cc1
3. O=C(/C=C/C=C/c1ccccc1)OCCc1ccc(NC(=O)c2ccc([N+](=O)[O-])o2)cc1
4. C/C=C/C=C/C(=O)OCc1ccc(NC(=O)c2ccc([N+](=O)[O-])o2)cc1
5. O=C(Nc1ccc(OCCCC(F)(F)F)cc1)c1ccc([N+](=O)[O-])o1

A)
5.55
5.13
5.20
5.07
4.95

----------
I'd appreciate it if you could supply IC50 values for the items below.
System: THP-1
Experiment: Cytotoxicity against human THP-1 cells assessed as cell viability by MTT assay
Numbers only, in µM.

{"columns": ["Structure", "Reading"],
 "data": [
  ["O=C(Nc1ccc(OCCCC(F)(F)F)cc1)c1ccc([N+](=O)[O-])o1", 16.8],
  ["O=C(/C=C/C=C/c1ccccc1)OCCc1ccc(NC(=O)c2ccc([N+](=O)[O-])o2)cc1", 4.6]
]}

// next entry
Q) Form field: reported IC50 of `CCCCc1ccc(NC(=O)c2ccc([N+](=O)[O-])o2)cc1`
A) 8.07
